molecular target: Grb2 SH2 (UniProt P62993); assay: SH2 binding enrichment of the phosphorylated peptide, bacterial display (enrichment ratio); higher = better substrate or ligand; peptides without Tyr show the background;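 further: peptide library displayed on the E. coli surface as eCPX fusions, selected cells deep-sequenced, score is each peptide's frequency after selection divided by its frequency in the input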
endpoint: SH2 binding enrichment

VMIYAYLLHRG [PTEN_Y138_C136Y]; 1.34
GPCKAYELSQR [SETX_Y1297_R1294C]; 0.775
WKESWYSMRKM [FGB_Y475_G472E]; 1.08
FDDIAHIRKTL [PIK3CA_Y1021_Y1021H]; 0.805

P. CTTIHDNYMCN [TP53_Y234_Y234D]
Q. IENPQYFSDAC [NTRK1_Y496]
Query block: Would you mind telling me which has the lower recorded SH2 binding enrichment between P and Q ? Indicate your choice by writing its label.
Result block: Q
(Q: 0.789, P: 1.21)
